Reported Control of LOLPE after pre-emergence application (score 0-5) values follow for various molecules
System: Lolium perenne (LOLPE)
Test: Pre-emergence herbicidal activity, Lolium perenne
Assay type: in vivo
Conditions: 1000 g/ha, evaluated after 13 days
EXPERIMENTAL ENDPOINT: Control of LOLPE after pre-emergence application (score 0-5)

O=C(Nc1ccc(-c2cncc(F)c2)nc1C(F)(F)F)OC1CCCCC1 2
CC(C)(C)NC(=O)Nc1ccc(-c2cncc(F)c2)nc1C(F)(F)F 1
COCCOC(=O)Nc1ccc(-c2cncc(F)c2)nc1C(F)(F)F 2
O=C(Nc1ccc(-c2cncc(F)c2)nc1C(F)(F)F)N1CCSC1 1
O=C(Nc1ccc(-c2cncc(F)c2)nc1C(F)(F)F)N1CCCCC1 1
CCCCOC(=O)Nc1ccc(-c2cncc(F)c2)nc1C(F)(F)F 1
CC(C)(C#N)OC(=O)Nc1ccc(-c2cncc(F)c2)nc1C(F)(F)F 0
CC(C)(C)OC(=O)Nc1ccc(-c2cncc(F)c2)nc1C#N 1
COCCNC(=O)Nc1ccc(-c2cncc(F)c2)nc1C(F)(F)F 1
